System: M14 melanoma
test summary: NCI tumour cell line growth inhibition, 48 h; in the data active means GI50 below about 0.43 µM; inactive means the rest
Would you mind answering with one of these outcomes? yes (1) (active), no (0) (inactive)

compound | category label
CCN1C(=O)N(CC)C2C1NN=c1s/c(=C\c3cccs3)c(=O)n12 (configuration not stated) | yes (1)

Consider the additional compound presented here.
Per the records of this test, what outcome belongs to COc1ccc(OC)c(NC(=O)c2cccc(NC3=C(Cl)C(=O)N(Cc4ccccc4)C3=O)c2)c1 ?
no (0)

* * *

Tested on: EKVX NSCLC
test summary: NCI tumour cell line growth inhibition, 48 h
metric: TGI

molecule | reported result
CC1(C)Oc2ccc3c(=O)cc(-c4cccs4)oc3c2C1C(=O)O (configuration not stated) | > 100 µM

Fill in TGI for each of the 7 molecules listed.
1. O=C1C=CC(=O)C2C1Cc1ccccc1C2c1ccccc1 (configuration not stated)
2. Cc1c(NC(=O)CCl)c(=O)oc2c(C)c3occc(=O)c3cc12
3. CCOc1cc(C(=O)O)c2c(ccc3ccc(OC)c(OC)c32)c1OC
4. Cc1c(OCCCOc2ccc3c(=O)cc(-c4ccccc4)oc3c2C)ccc2c(=O)cc(-c3ccccc3)oc12
5. CCCCCCCCCC(O)CC(=O)c1c(O)cccc1O (configuration not stated)
6. Nc1ccc2nc(Nc3ccc(Cl)c(Cl)c3)cnc2c1
7. Cc1cn(CCC(N)C(=O)O)c(=O)[nH]c1=O (configuration not stated)

1. 72.9 µM
2. 38.2 µM
3. > 100 µM
4. > 100 µM
5. 45.5 µM
6. > 100 µM
7. > 100 µM

* * *

System: KM12 colon
test summary: NCI tumour cell line growth inhibition, 48 h
Can you tell me TGI for the items I'm about to list?

molecule | assayed system | reported result
CC(C(=O)NCCNC(=O)CCC(=O)N(C)O)C(=O)NCCNC(=O)CCC(=O)N(C)O | KM12 colon | > 100 µM
N=S(=O)(c1ccccc1)c1ccccc1 | KM12 colon | > 100 µM
N/C(=N\NC(=O)c1nc2ccccc2s1)c1ccccn1 | KM12 colon | > 100 µM
O=C(/C=C/c1ccc(OCc2ccccc2)cc1)NCc1ccc(C(=O)NCc2ccccc2)cc1 | KM12 colon | > 100 µM
Nc1ccc2nc(Nc3ccc(Cl)c(Cl)c3)cnc2c1 | KM12 colon | 32.3 µM

For each listed entry, give its TGI.
1. COc1cc(O)c(C(=O)CC(C)=O)c(OC)c1
2. O=P(O)(O)OCC1OC(n2cnc3c(NCc4ccco4)ncnc32)C(O)C1O (stereo unspecified)
3. C=CC(C)(C)C1(CC(OC)OC)C(=O)N(C)c2ccccc21 (stereo unspecified)
4. CC(=O)NNc1nc(C)c(C(/C=C/c2ccc([N+](=O)[O-])cc2)=N/NC(N)=O)s1
5. CCCCCCCCCC(O)CC(=O)c1c(O)cccc1O (stereo unspecified)
6. C[C@]12CC[C@@H]3c4ccc(O)cc4CC[C@H]3[C@@H]1CC[C@@H]2NS(=O)(=O)c1cccc(Cl)c1

1. > 100 µM
2. > 42.6 µM
3. > 25 µM
4. > 100 µM
5. 40.8 µM
6. 4.24 µM

* * *

Tested on: SF-539 CNS
test summary: NCI tumour cell line growth inhibition, 48 h
metric: TGI (µM)
One number for each entry, in µM.

Reference set (4 entries):
compound | TGI (µM)
COc1ccc(C(=O)c2c(-c3ccccc3NC(=O)C(F)(F)F)[nH]c3ccccc23)cc1 | 4.41
O=C1NCN(c2ccccc2)C12CCN(CCCC(c1ccc(F)cc1)c1ccc(F)cc1)CC2 | 3.13
COc1ccc(C(C#N)=C2C=CC(=NO)C=C2)cc1 | 13.8
CC(=O)OC12CC(C(F)(F)F)(C(F)(F)F)OC1(OC(C)=O)CC(C(F)(F)F)(C(F)(F)F)O2 (stereo not drawn) | 8.48

Here's the next entry for you.
For CCN1C(=O)N(CC)C2C1NN=c1s/c(=C\c3cccs3)c(=O)n12 (stereo not drawn) , what is its reported TGI?
0.812
